- assay info: budding yeast growth modifiers under rapamycin – strain BY4716, OD600, 96 h, primary screen (AID 1091)
- experimental context: S. cerevisiae BY4716 + rapamycin, higher = more signal, called active from +8 up or from −8 down
Active and inactive are the calls of the source.
endpoint label: z-score

Problem: Tell me measured z-score for COC(=O)[C@]1(CCS(=O)(=O)c2ccccc2)N=C(c2ccc(OCCCO)cc2)O[C@@H]1c1ccccc1N=[N+]=[N-] please.
Solution: 35.7 (active)

Problem: Note down z-score recorded for CCCN1C(=O)[C@@]2(Cc3ccccc31)N=C(c1ccc(OCCCO)cc1)O[C@H]2c1ccccc1
Solution: 0.99 (inactive)

Problem: Please give the documented z-score of C=C[C@@H](CO)N(Cc1ccc(OC)cc1)S(=O)(=O)c1ccc(Br)cc1
Solution: -1.92 (inactive)

Problem: // Input: COc1ccc([Si](C)(C)[C@@H]2[C@@H](CCO)O[C@]3(C(=O)N(Cc4ccccc4)c4ccc(N5C(=O)c6cccc7cccc5c67)cc43)[C@H]2C)cc1 . Output its z-score only.
Solution: 37.1 (active)

----------
Would you mind telling me the reported composite z-score of each entry?
- target or system: Albumin (Bos taurus)
- assay info: compounds binding labelled BSA control protein – biochemical, small-molecule microarray, Alexa647 label, 635/667 nm fluorescence, artefact control for SMM control protein annotation, profiling panel (AID 1118);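 also: score merges 667 nm emission intensity and signal-to-noise per printed compound spot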
- experimental context: BSA-A647 binding, fluorescence 635 nm, higher = more signal

Problem: State recorded composite z-score with Albumin (Bos taurus), entry C=C[C@@H](CO)N(Cc1ccc(OC)cc1)S(=O)(=O)c1ccc(Br)cc1 , no comment.
Solution: 0.131

Problem: Send back Albumin (Bos taurus) composite z-score of CC(C)N1C(=O)C[C@@](C(=O)NC2CC2)(c2ccc([N+](=O)[O-])cc2)[C@H]1c1ccc(CO)cc1 only.
Solution: -1.1

Problem: Recall the reported composite z-score of COc1cc(OC)c(C(O)C2C=CC3C(=O)N(Cc4ccccc4)C(=O)C3N2n2cnnc2)cc1Br (stereo unspecified) when tested on Albumin (Bos taurus).
Solution: 0.725

Problem: Please respond with reported composite z-score (system Albumin (Bos taurus)) for COC(=O)C1=CC(CCCO)=CC(c2cccs2)N(C)C=C1C(=O)OC (stereo unspecified) .
Solution: 0.445

Problem: State the measured composite z-score (Albumin (Bos taurus)) of CS(=O)(=O)CCOC(=O)C1=CC(CCCO)=CC(c2ccc(CN3CCCC3)cc2)N(Cc2sc3ccccc3c2Cl)C=C1C(=O)OCCS(C)(=O)=O (stereo unspecified)
Solution: 1

Problem: With Albumin (Bos taurus) as the test system, provide measured composite z-score for this molecule: CC(=O)N1CC2(CC2)CC1c1ccccc1 (stereo unspecified)
Solution: 0.336

Problem: # return composite z-score of COC(=O)[C@@]1(Cc2ccc(F)cc2)[C@H]2c3cc(C(=O)N(C)C)n(CCc4ccc(OC)c(Br)c4)c3C[C@H]2CN1C(=O)c1ccccc1 (system: Albumin (Bos taurus))
Solution: 0.939

Problem: // fetch composite z-score for CC(C)C(O)C1C=CC2C(=O)N(c3ccccc3)C(=O)C2N1Nc1ccccc1 (stereo unspecified) ; system: Albumin (Bos taurus)
Solution: 0.938

Problem: Lab note: record composite z-score of CCCC=C(CCC)[C@@H](NC(=O)C(C)(C)C)c1ccc(C(=O)OC)cc1 tested on Albumin (Bos taurus).
Solution: 0.991

Problem: Find composite z-score for O=C1OCCC=C[C@H]2OC34C=CCN(Cn5nnc6ccccc65)C(=O)[C@H]3N(CCCO)C(=O)[C@@H]4C12 (stereo partly specified) on Albumin (Bos taurus) and write it down.
Solution: -0.841

Problem: Determine reported composite z-score for CN(C)C(=O)[C@@]1(Cc2ccccc2)N=C(c2ccc(OCCCO)cc2)O[C@H]1c1ccccc1 ; test system: Albumin (Bos taurus).
Solution: 0.637

Problem: GET composite z-score where system = Albumin (Bos taurus) and item = COC(=O)C1=CC(CCCO)=CC(c2cccs2)N(Cc2cccc(OC(F)(F)F)c2)C=C1C(=O)OC (stereo unspecified)
Solution: 0.935

Problem: Provide Albumin (Bos taurus) composite z-score reading for CC[C@@H]1O[Si](C(C)C)(C(C)C)c2c1cc(-c1cc(C)c(OC)c(C)c1)nc2-c1ccc(Oc2ccccc2)cc1 .
Solution: -0.145

Problem: Report its composite z-score with Albumin (Bos taurus) as the test system: COc1ccc(CCNC(=O)[C@@]2(c3ccc([N+](=O)[O-])cc3)CC(=O)N(C3CCCCC3)[C@@H]2c2ccc(CO)cc2)cc1
Solution: 0.143

Problem: Answer briefly: composite z-score recorded on Albumin (Bos taurus) for NC(=O)NCC#Cc1ccc2c(c1)[C@]1(C(=O)N2)[C@H](c2ccccc2OCCO)N2[C@H](c3ccccc3)[C@H](c3ccccc3)OC(=O)[C@H]2[C@@H]1C(=O)NC[C@H](O)c1ccccc1
Solution: 0.63

Problem: Name the recorded composite z-score of COC(=O)[C@@]1(Cc2ccc(F)cc2)[C@H]2c3cc(C(=O)N4CCCC4)n(CCc4c[nH]c5ccccc45)c3C[C@H]2CN1C(=O)c1ccccc1 , assay system Albumin (Bos taurus).
Solution: 1.11

----------
- Test system: XIP peptide (Xip251-270)
- assay info: compounds binding XIP fragment 251-270 – biochemical, small-molecule microarray, fluorescence 635/667 nm, 0.5 µg/mL protein, primary screen (AID 1183)
- experimental context: fluorescence 635 nm, higher = more signal
Assign class by composite z-score: not lower than 0.1 means 1.0; lower than 0.1 means 0.0.

Problem: Please tell me: is the molecule C#CCN([C@@H](Cc1ccccc1)C(=O)OC)[C@@H](/C=C/C1CC1)[C@H](O)Cc1ccccc1 at or over 0.1 in terms of composite z-score?
Solution: 0.0

Problem: Please tell me: is the molecule O[C@@H](Cc1ccccc1)[C@@H](/C=C/C1CC1)N(CC#Cc1ccccc1)Cc1ccccc1Br at or over 0.1 in terms of composite z-score?
Solution: 1.0

Problem: Tell me whether composite z-score is at least 0.1 here: Cc1ccccc1C(O)C1C=CC2C(=O)NC(=O)C2N1Nc1ccccn1 (stereo not given)
Solution: 1.0

Problem: Reported composite z-score reaches at least 0.1 for COC(=O)[C@@H]1N=C(c2ccc(OCCCO)cc2)O[C@@H]1C ?
Solution: 1.0

Problem: Can [N-]=[N+]=Nc1ccccc1[C@@H]1OC(c2ccc(OCCCO)cc2)=N[C@]1(Cc1ccccc1)C(=O)N1CCCCC1 be said to have composite z-score at or above 0.1?
Solution: 1.0

----------
- assay info: probe aXIP binding to arrayed compounds – biochemical, NeuroSMM set, 635/667 nm fluorescence, primary screen (AID 1119);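 also: probe is the protein aXip251-270 applied at 1 µg/mL to compound-printed slides; binding of probe to printed compounds measured as 667 nm fluorescence plus signal to noise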
- experimental context: small-molecule microarray, higher = more signal, called active from +8 up or from −8 down
endpoint label: composite Z-score
The answer should be a number; do not append a unit.

Problem: Identify the reported composite Z-score for the following entry. CN(C)C(=O)[C@]1(CCC(=O)OC(C)(C)C)N=C(c2ccc(OCCCO)cc2)O[C@@H]1c1ccccc1CN=[N+]=[N-]
Solution: -0.579

Problem: Tell me its composite Z-score given CCCCN1CC=CC23O[C@@H]4/C=C\CCCOC(=O)C4[C@H]2C(=O)N(CCO)[C@@H]3C1=O (some centres not stated) as the entry.
Solution: 0.257

Problem: Respond only with composite Z-score recorded for [N-]=[N+]=NCc1ccccc1[C@@H]1OC(c2ccc(OCCCO)cc2)=N[C@]1(CCS(=O)(=O)c1ccccc1)C(=O)O
Solution: 0.0313

Problem: Name the recorded composite Z-score of the compound listed here: [N-]=[N+]=Nc1ccccc1[C@@H]1OC(c2ccc(OCCCO)cc2)=N[C@]1(Cc1ccccc1)C(=O)O
Solution: 0.008

Problem: Check the records and state composite Z-score for CCOC(=O)C[C@H]1[C@H](OC(=O)c2ccc(C(=O)c3ccccc3)cc2)[C@@H](NC(=O)C2CCCCC2)c2cc(OCCCO)ccc2N1C(=O)c1ccc2ccccc2n1
Solution: -0.482

Problem: Provide measured composite Z-score value, entry: C=CCN1C(=O)[C@]2(CCC(=O)OC(C)(C)C)N=C(c3ccc(OCCCO)cc3)O[C@@H]2c2ccccc21
Solution: -0.014

Problem: Output measured composite Z-score for this item: CC(C)C(CO)N1C(=O)[C@@H]2C3C(=O)OCCC/C=C\[C@H]3OC23C=CCN(Cn2nnc4ccccc42)C(=O)[C@@H]13 (some centres not stated)
Solution: -0.0983

----------
- assay info: binders from COS7 lysate, DM2A8 probe, primary screen, torsin A project, cell lysate, small-molecule microarray, fluorescence 635/667 (AID 1065)
- experimental context: higher = more signal, COS7 lysate expressing mutant human TOR1A
endpoint label: composite z-score

Problem: Answer with reported composite z-score of CCCC1(C(=O)OC)C=C2C(=C(C)C(=O)C2C)CN1 (centres undefined)
Solution: -0.313

Problem: Quick one: give measured composite z-score for CCCC#C[Si](O[C@H](CC)c1cn([C@H](C)c2ccccc2)nn1)(C(C)C)C(C)C
Solution: 1.31

Problem: Given C=CCNC(=O)[C@@H]1[C@H]2C(=O)O[C@H](c3ccccc3)[C@H](c3ccccc3)N2[C@H](c2ccccc2OCCO)[C@@]12C(=O)N(C(=O)OCCOC)c1ccc(C#CC3(O)CCCCCC3)cc12 , respond with its composite z-score.
Solution: 0.356

Problem: Please report the measured composite z-score for CCCC=C(CCC)[C@@H](NC(=O)c1cccs1)c1ccc(C(=O)OC)cc1
Solution: 0.392

Origin of the recorded values: PubChem BioAssay
